# ASSAY PROTOCOL: pKa determination on Sirius T3
# Type: physicochemical
RECORDED ENDPOINT: pKa

Find the recorded pKa belonging to CCOCc1nc2c(N)nc3ccccc3c2n1CC(C)(C)O [Freebase Type A] and report it. 7.2

----------
# ASSAY PROTOCOL: Solubility estimation in solvents at RT
# Format: physicochemical
# RECORDED CONDITIONS: MEK, organic solvent or mixture, thermodynamic from solid
RECORDED ENDPOINT: solubility

Find the recorded solubility belonging to CCOCc1nc2c(N)nc3ccccc3c2n1CC(C)(C)O [sulfate Type A (807919-21-A)] and report it. < 2000 µg/mL

----------
# ASSAY PROTOCOL: Kinetic solubility in water and bio-relevant media (SGF, FaSSIF, FeSSIF) at RT
# Format: physicochemical
# RECORDED CONDITIONS: FaSSIF, thermodynamic from solid, FaSSIF, RT, 24 hrs; read-out: S: Solubility
Counter-ions that a name gives are not always drawn.
RECORDED ENDPOINT: solubility at 24 h (µg/mL)
Expressed in µg/mL, but write only the number.

Find the recorded solubility at 24 h belonging to CCOCc1nc2c(N)nc3ccccc3c2n1CC(C)(C)O [Mono-HCl salt Type A, resiquimod] and report it. 4500

----------
# ASSAY PROTOCOL: Kinetic solubility in water and bio-relevant media (SGF, FaSSIF, FeSSIF) at RT
# Format: physicochemical
# RECORDED CONDITIONS: FaSSIF
RECORDED ENDPOINT: solubility kinetic

Find the recorded solubility kinetic belonging to CCOCc1nc2c(N)nc3ccccc3c2n1CC(C)(C)O [Freebase Type A] and report it. ~2900 µg/mL

----------
Form field: S: Solubility (one value per entry).
# ASSAY PROTOCOL: Kinetic solubility in water and bio-relevant media (SGF, FaSSIF, FeSSIF) at RT
# Assay type: physicochemical
# RECORDED CONDITIONS: Water, RT, 2 hrs
Expressed in mg/mL, but write only the number.

Below, each entry is followed by its recorded S: Solubility result.
# COMPOUND, OBSERVED VALUE
rows = [
    ("CCOCc1nc2c(N)nc3ccccc3c2n1CC(C)(C)O [Adipate Type A, resiquimod]", 2.7),
    ("CCOCc1nc2c(N)nc3ccccc3c2n1CC(C)(C)O [Freebase Type A]", 0.5),
]

In the following, a different compound is considered.
Find the recorded S: Solubility belonging to CCOCc1nc2c(N)nc3ccccc3c2n1CC(C)(C)O [Maleate Type A, resiquimod] and report it. 0.98

----------
# ASSAY PROTOCOL: Kinetic solubility in water and bio-relevant media (SGF, FaSSIF, FeSSIF) at RT
# Format: physicochemical
# RECORDED CONDITIONS: FaSSIF, RT, 1 hr
RECORDED ENDPOINT: S: Solubility (µg/mL)
Expressed in µg/mL, but write only the number.

Below, each entry is followed by its recorded S: Solubility result.
# COMPOUND, RESULT UNITS, OBSERVED VALUE
records = [
    ("CCOCc1nc2c(N)nc3ccccc3c2n1CC(C)(C)O [Adipate Type A, resiquimod]", "µg/mL", 4300),
    ("CCOCc1nc2c(N)nc3ccccc3c2n1CC(C)(C)O [Maleate Type A, resiquimod]", "µg/mL", 2200),
]

Find the recorded S: Solubility belonging to CCOCc1nc2c(N)nc3ccccc3c2n1CC(C)(C)O [Freebase Type A] and report it. 2700

Ref: patent US20260248780A1
